- tested_system: human coagulation factor XI (UniProt P03951 19-625)
- experiment_summary: ELISA
Below, each of the binders is paired with its reported EC50 value.
Enter your answer as a number in pM; do not include the unit.

Here is how some binders turned out for EC50.
humanized and germlined anti-FXI antibody TPP-3290 (antibody, V domains shown) VH: EVTLRESGPALVKPTQTLTLTCTFSGFSLSTSGMGVSWIRQPPGKALEWLAHIDWDDDKYYSTSLKSRLTISKDTSKNQVVLTMTNMDPVDTATYYCARIRSSVYAHYYGMDYWGQGTTVTVSS VL: DIVMTQSPDSLAVSLGERATISCKASQSVLYSGDNYLNWYQQKPGQPPKLLIYAASTLESGIPDRFSGSGSGTDFTLTISSLQAEDVAVYYCQQYNGTPWTFGGGTKVEIKR	170
humanized and germlined anti-FXI antibody TPP-3583 (antibody, V domains shown) VH: EVTLRESGPALVKPTQTLTLTCTFSGFSLSTSGMGVGWIRQPPGKALEWLAHIDWDDDKYYSPSLKSRLTISKDTSKNQVVLTMTNMDPVDTATYYCARIRSSVYAHYYGMDYWGQGTTVTVSS VL: DIVMTQSPDSLAVSLGERATISCKASQSVLYSGDNYLNWYQQKPGQPPKLLIYAASTLESGIPDRFSGSGSGTDFTLTISSLQAEDVAVYYCQQYNGDPWTFGGGTKVEIKR	200
murine anti-FXI antibody 1A6 (antibody, V domains shown) VH: QVTLKESGPGILKPSQTLSLTCSFSGFSLSTSGMGVGWIRQPSGKGLEWLAHIWWDDDKYYNPSLKSQLTISKDTSRNQVFLKITSVDAADTATYYCARKRSSVVAHYYAMDYWGQGTSVTVSS VL: DIVLTQSPASLAVSLGQRATISCKASQSVDYDGDSYLNWYQQKPGQPPKLLIYAASNLESGIPARFSGSGSGTDFTLNIHPVEEEDAATYYCQQSNGDPWTFGGGTKLEIK	150

Shift focus to the following entry.
stdin: Look at this binder and give its reported EC50. humanized and germlined anti-FXI antibody TPP-3577 (antibody, V domains shown) VH: EVTLRESGPALVKPTQTLTLTCTFSGFSLSTSGMCVGWIRQPPGKALEWLAHIDWDDDKYYSTSLKSRLTISKDTSKNQVVLTMTNMDPVDTATYYCARIRSSVYAHYYGMDVWGQGTTVTVSS VL: DIVMTQSPDSLAVSLGERATISCKSSQSVLYSGDNYLNWYQQKPGQPPKLLIYAASTLESGIPDRFSGSGSGTDFTLTISSLQAEDVAVYYCQQYNGDPWTFGGGTKVEIKR
stdout: 190

Reference for the values: patent US20190225705A1
